# experiment-notes: Peak and trough ranolazine plasma concentrations, IR regimens (Example 3)
# Type: in vivo
# run-parameters: male, human, oral, 400 mg, Males, IR 400 mg tid, read-out: Ranolazine Plasma Concentration, Peak, mean (SD)
reported-metric: concentration at 1 h (ng/mL)
Report only the number, with the unit ng/mL understood.

[in] Suppose we examine the molecule COc1ccccc1OCC(O)CN1CCN(CC(=O)Nc2c(C)cccc2C)CC1 (racemic) ; what concentration at 1 h value has been reported?
[out] 1920

* * *

# experiment-notes: Peak and trough ranolazine plasma concentrations, IR regimens (Example 3)
# Type: in vivo
# run-parameters: human, oral, 267 mg, All Patients, IR 267 mg tid, read-out: Ranolazine Plasma Concentration, Trough, mean (SD)
reported-metric: concentration at 8 h

[in] Please report the recorded concentration at 8 h for COc1ccccc1OCC(O)CN1CCN(CC(=O)Nc2c(C)cccc2C)CC1 (racemic) .
[out] 316 ng/mL
